Below, each of the compounds is paired with its reported Population Apoptotic (%) value.
- System: U2OS
- assayInfo: Multiplex assay against U2OS
- Assay type: toxicity, cell-based
- protocolConditions: human, 12 h, 1 µM, compound concentration 1 uM, replicate 2
Write the number in % without appending the unit.

>>> endpointresult("Cc1cc(=O)n(C)c2cc(N3C(=O)CC[C@H](NS(=O)(=O)CC(C)C)[C@H]3c3ccc(Cl)cc3)ccc12")
63
>>> endpointresult("COc1ccc2[nH]c(I)c(CCNC(C)=O)c2c1 [IODOMELATONIN]")
37
>>> endpointresult("O=c1ccc2ccc(OCCCCN3CCN(c4cccc5sccc45)CC3)cc2[nH]1 [BREXPIPRAZOLE]")
55

[in] Which Population Apoptotic (%) value belongs to Cc1cc(NC(=O)NCCN2CCC(O)(Cc3ccccc3)CC2)c2ccccc2n1 [PALOSURAN] ?
[out] 71

[in] Which Population Apoptotic (%) value belongs to Cc1ccc(OCC(O)C(C)NC(C)C)c2c1CCC2.Cl (configuration not stated) ?
[out] 90

[in] Which Population Apoptotic (%) value belongs to `OCCCNc1cc(-c2ccnc(Nc3cccc(Cl)c3)n2)ccn1` ?
[out] 80

[in] Which Population Apoptotic (%) value belongs to COC(c1ccccc1)(c1ccccc1)[C@H](Oc1nc(C)cc(C)n1)C(=O)O [AMBRISENTAN] ?
[out] 100

[in] Which Population Apoptotic (%) value belongs to CC(C)C[C@H](CO)Nc1nc(S[C@@H](C)c2ccccc2)nc2nc(N)sc12 [AZD-8797] ?
[out] 100

[in] Which Population Apoptotic (%) value belongs to `Cc1sc2c(c1C)C(c1ccc(Cl)cc1)=N[C@H](CC(=O)OC(C)(C)C)c1nnc(C)n1-2` ?
[out] 71

[in] Which Population Apoptotic (%) value belongs to `O=C(Nc1cc(-c2ccccc2)nn1-c1ccccc1F)c1ccc([N+](=O)[O-])cc1` ?
[out] 91

[in] Which Population Apoptotic (%) value belongs to Cc1cc(-c2ccc3c(c2)CC[C@H]3N2CC3(CCN(C(=O)Cc4cn5cc(C)sc5n4)CC3)C2)ncn1 [PF-5190457] ?
[out] 63

[in] Which Population Apoptotic (%) value belongs to `N[C@](CC1c2ccccc2Oc2ccccc21)(C(=O)O)[C@H]1C[C@@H]1C(=O)O` ?
[out] 72
